tested on: Staphylococcus epidermidis 109; assay: MIC, serial dilution on nutrient agar; format: cell-based; details: Staphylococcus epidermidis, 109, 18 h

Molecule	MIC
C[C@@H]1C[C@H](N)[C@@H](O)[C@@H](O[C@@H]2[C@@H](O)[C@H](O[C@H]3O[C@H](CN)CC[C@H]3N)[C@@H](N)C[C@H]2N)O1	3.13 µg/mL
C[C@@H]1C[C@H](N)[C@@H](O)[C@@H](O[C@@H]2[C@@H](O)[C@H](O[C@H]3O[C@H](CN)CC[C@H]3N)[C@@H](N)C[C@H]2NC(=O)[C@@H](O)CCN)O1	1.56 µg/mL
C[C@H]1O[C@H](O[C@@H]2[C@@H](O)[C@H](O[C@H]3O[C@H](CN)CC[C@H]3N)[C@@H](N)C[C@H]2NC(=O)[C@@H](O)CCN)[C@H](O)[C@@H](N)[C@@H]1O	1.56 µg/mL
C[C@H]1O[C@H](O[C@@H]2[C@@H](O)[C@H](O[C@H]3O[C@H](CN)CC[C@H]3N)[C@@H](N)C[C@H]2N)[C@H](O)[C@@H](N)[C@@H]1O	1.56 µg/mL
